B1: LINE1-mini (parent)
chain: GGCAGAGCUCAACACAGCGUGGCAAAGUGGCUGUGGCUAGACUGCC

- Variants of: B1
- Procedure summary: self-cleavage, relative activity (ratio to wild type); higher = more cleavage; in vitro, sequencing; the parent is a self-cleaving ribozyme
self-cleavage below 0.08 gives 0 (no); self-cleavage at or above it gives 1 (yes).

Record excerpt, results attached:
>>> print(df.to_string())
   mutation_id  assigned_category
0     U9A G22U            1 (yes)
1     G7U G22U            1 (yes)
2    A14G G27A            1 (yes)
3     G2C G35A             0 (no)
4    A14G G22A            1 (yes)
5    G27C U28A            1 (yes)
6    A25U A41G            1 (yes)
7     A4U A11C             0 (no)

# bool: self-cleavage of A25U A39G >= 0.08
0 (no)

# bool: self-cleavage of `G27A` >= 0.08
1 (yes)

# bool: self-cleavage of G33U C37A >= 0.08
0 (no)
